- target entity: T1, human PILRA G78 extracellular domain (recombinant hPILRA ECD) (human, UniProt Q9UKJ1 20-197)
- T1 construct: also called hPILRA G78
- T1 sequence (Q9UKJ1 20-197 R78G limits assumed): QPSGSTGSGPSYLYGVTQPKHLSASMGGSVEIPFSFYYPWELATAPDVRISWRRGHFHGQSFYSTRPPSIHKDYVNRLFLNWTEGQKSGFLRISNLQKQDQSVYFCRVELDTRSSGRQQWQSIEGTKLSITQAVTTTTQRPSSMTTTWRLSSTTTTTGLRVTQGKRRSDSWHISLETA
- experiment notes: SPR
assay endpoint: pKd
Remember, pKd is on a log scale: it is -log10 of the molar concentration.

Answered examples (3):
>  <binder>
Anti-PILRA antibody clone 12 (antibody, V domains shown, Humanized; also called Ab.12) VH: EVQLVQSGAEVKKPGASVKVSCKASGYTFTEYYMYWVRQAPGQGLELIGRIDPEDGGTDYIEKFKNRVTITADTSTSTAYLELSSLRSEDTAVYYCATTIRGTVFAFWGQGTLVTVSS VL: DIQMTQSPSSLSASVGDRVTITCRASEDIFNGLAWYQQKPGKSPKLLIYNAKTLHTGVPSRFSGSGSGSDYTLTISSLQPEDFATYFCQQYYDYPLTFGQGTKVEIK

>  <pKd>
8.92

$$$$
>  <binder>
Anti-PILRA antibody clone 35 (antibody, V domains shown, Humanized; also called Ab.35) VH: EVQLVQSGAEVKKPGASVKVSCKASGYTFTEYYMYWVRQAPGQGLELIGRIDPEDGGTDYVEKFKNRATLTADTSTSTAYLELSSLRSEDTAVYFCASTIRGTVFVYWGQGTLVTVSS VL: DIQMTQSPSSLSASVGDRVTITCRPSEDIYNGLAWYQQKPGKSPKLLIYNANSLHTGVPSRFSGSGSGTDYTLTISSLQPEDFATYFCQQYYDYPLTFGQGTKVEIK

>  <pKd>
8.85

$$$$
>  <binder>
Anti-PILRA antibody clone 15 (antibody, V domains shown, Humanized; also called Ab.15) VH: EVQLVQSGAEVKKPGASVKVSCKASGYTFTEYYMYWVRQAPGQGLELIGRIDPEDGGTDYIEKFKNRSTLTADTSTSTAYLELSSLRSEDTAVYFCATTIRGTVFAFWGQGTLVTVSS VL: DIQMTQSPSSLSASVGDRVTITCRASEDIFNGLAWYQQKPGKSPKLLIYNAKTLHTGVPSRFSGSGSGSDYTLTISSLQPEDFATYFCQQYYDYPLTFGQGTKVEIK

>  <pKd>
9.19

$$$$

// next item, pKd requested
What pKd value was documented for this binder, Anti-PILRA antibody clone 23 (antibody, V domains shown, Humanized; also called Ab.23) VH: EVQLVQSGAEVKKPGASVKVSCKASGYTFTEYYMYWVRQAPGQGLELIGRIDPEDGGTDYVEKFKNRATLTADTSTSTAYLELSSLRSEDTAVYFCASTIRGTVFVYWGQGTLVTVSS VL: DIQMTQSPSSLSASVGDRVTITCRPSEDIYNGLAWYQQKPGKAPKLLIYNANSLHTGVPSRFSGSGSGTDYTLTISSLQPEDFATYYCQQYYDYPLTFGQGTKVEIK ?
8.55
